Task for the reader: assign each of the following compounds its reported IC50.
STUDY_SYSTEM: human Cot catalytic domain (30-397 amino acids) (Homo sapiens)
Construct: Purified recombinant human Cot catalytic domain (30-397 amino acids) was purchased from Cama Biosciences; purchased Cama Biosciences (so in the source)
Sequence (P41279 30-397): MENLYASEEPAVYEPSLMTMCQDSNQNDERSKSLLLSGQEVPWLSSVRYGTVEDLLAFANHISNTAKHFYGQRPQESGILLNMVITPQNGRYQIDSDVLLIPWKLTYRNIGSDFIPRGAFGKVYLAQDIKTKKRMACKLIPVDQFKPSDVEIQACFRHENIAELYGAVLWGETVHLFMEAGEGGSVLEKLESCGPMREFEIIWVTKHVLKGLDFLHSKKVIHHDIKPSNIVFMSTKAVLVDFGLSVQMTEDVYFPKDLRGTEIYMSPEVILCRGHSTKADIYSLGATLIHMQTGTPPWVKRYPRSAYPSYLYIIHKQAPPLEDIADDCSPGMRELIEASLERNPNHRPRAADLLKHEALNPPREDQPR
PROTOCOL_TEXT: High Throughput Cot Biochemical Assay (KinEASE TR-FRET)
RECORDED_CONDITIONS: Cot KinEASE TR-FRET (HTRF) biochemical assay, 400 μM ATP; read-out: IC50 HTRF
Report the value in nM with no unit label.

Task item: API: value(readout=IC50, system=human Cot catalytic domain (30-397 amino acids) (Homo sapiens)) for record [2H][C@](Nc1cc(Cl)c2ncc(C#N)c(N[C@H](CC)c3ccccc3)c2c1)(c1ccccc1Cl)c1nn[nH]c1C [Example 298]
Reply: 121

Task item: Query for human Cot catalytic domain (30-397 amino acids) (Homo sapiens): what IC50 does the record show for [2H][C@](Nc1cc(Cl)c2ncc(C#N)c(NC(c3ccccc3)C(C)(C)C)c2c1)(c1ccc(F)cc1)c1cn(C2CC2)nn1 (stereo partly shown) [Example 307] ?
Reply: 116

Task item: State its IC50 on human Cot catalytic domain (30-397 amino acids) (Homo sapiens): [2H][C@](Nc1cc(OC)c2ncc(C#N)c(NCC(C)(C)C)c2c1)(c1ccc(F)cc1)c1cn(C2CC2)nn1 [Example 172]
Reply: 139

Task item: API: value(readout= IC50, system= human Cot catalytic domain (30-397 amino acids) (Homo sapiens), query= [2H][C@](Nc1cc(Cl)c2ncc(C#N)c(NC(CC#N)c3ccccc3)c2c1)(c1ccc(F)cc1)c1cn(-c2cccnc2)nn1 (stereo partly shown) [Example 267] )
Reply: 7

Task item: Record CC(C)(C)N1CCC(n2cc([C@@H](Nc3cc(Cl)c4ncc(C#N)c(Nc5ccc(F)c(Cl)c5)c4c3)c3cccc(NS(C)(=O)=O)c3)nn2)CC1 [Compound 25] : what is its IC50 with human Cot catalytic domain (30-397 amino acids) (Homo sapiens)?
Reply: 4

Task item: Provide the documented IC50 with human Cot catalytic domain (30-397 amino acids) (Homo sapiens) as the system for CC(C)(C)CNc1c(C#N)cnc2c(C#N)cc(N[C@@H](c3cccc(-c4ncco4)c3)c3cn(C4CC4)nn3)cc12 [Example 82]
Reply: 1

Task item: Hello, I am looking for reported IC50 with human Cot catalytic domain (30-397 amino acids) (Homo sapiens) for [2H]C(Nc1cc(Cl)c2ncc(C#N)c(NCC(C)(C)C)c2c1)(c1cn(C2(C(F)(F)F)CC2)nn1)c1ccccc1Cl (stereo not shown) [Example 106] . Could you help?
Reply: 58

Task item: Value wanted: IC50 (human Cot catalytic domain (30-397 amino acids) (Homo sapiens)) of entry [2H][C@](Nc1cc(Cl)c2ncc(C#N)c(N[C@@H](c3ccccc3)C3CC3)c2c1)(c1ccc(F)cc1)c1cn(C2CC2)nn1 [Example 185]
Reply: 11

Task item: Notebook entry, human Cot catalytic domain (30-397 amino acids) (Homo sapiens) assay: IC50 of [2H]C(Nc1cc(Cl)c2ncc(C#N)c(NCC(C)(C)C)c2c1)(c1cn(C(F)(F)CO)nn1)c1ccccc1Cl (stereo not shown) [Compound 26] = ?
Reply: 13

Task item: Lab request: please report IC50 under test system human Cot catalytic domain (30-397 amino acids) (Homo sapiens) for [2H][C@@](Nc1cc(C(C)=O)c2ncc(C#N)c(Nc3cccc(Cl)c3)c2c1)(c1cn(C2CC2)nn1)c1ccccc1Cl [Example 85]
Reply: 42

Task item: # value lookup — system human Cot catalytic domain (30-397 amino acids) (Homo sapiens), readout IC50, item CN(c1cccc([C@H](Nc2cc(C#N)c3ncc(C#N)c(NCC(C)(C)C)c3c2)c2cn(C3CC3)nn2)c1)S(C)(=O)=O [Example 69]
Reply: 3
